Let's look at some compounds and their measured relative viability.
Test system: HCC-366
ASSAY_NOTES: relative viability (nuclei count vs DMSO), 5 days (fraction); higher = more cells survive
CONDITION_DETAILS: first compound 4 µM

COMPOUND	TARGET_OR_TEST_SYSTEM	relative viability
Clc1ccc(Nc2nnc(Cc3ccncc3)c3ccccc23)cc1 [Vatalanib] + CS(=O)(=O)CCNCc1ccc(-c2ccc3ncnc(Nc4ccc(OCc5cccc(F)c5)c(Cl)c4)c3c2)o1 [Lapatinib] (partner 2 µM)	HCC-366	1.03
Clc1ccc(Nc2nnc(Cc3ccncc3)c3ccccc23)cc1 [Vatalanib] + N=C(N)NC(=N)NCCc1ccccc1 [Phenformin] (partner 250 µM)	HCC-366	0.547
C[C@@H]1CN(CC(=O)Nc2ccc3c(c2)Cc2cccc(-c4cc(=O)cc(N5CCOCC5)o4)c2S3)C[C@H](C)O1 + Cc1nc(Nc2ncc(C(=O)Nc3c(C)cccc3Cl)s2)cc(N2CCN(CCO)CC2)n1 [Dasatinib] (partner 0.075 µM)	HCC-366	0.529
Clc1ccc(Nc2nnc(Cc3ccncc3)c3ccccc23)cc1 [Vatalanib] + CS(=O)(=O)N1CCN(Cc2cc3nc(-c4cccc5[nH]ncc45)nc(N4CCOCC4)c3s2)CC1 [Pictilisib] (partner 1 µM)	HCC-366	0.11
C[C@@H]1CN(CC(=O)Nc2ccc3c(c2)Cc2cccc(-c4cc(=O)cc(N5CCOCC5)o4)c2S3)C[C@H](C)O1 + CS(=O)(=O)N1CCN(Cc2cc3nc(-c4cccc5[nH]ncc45)nc(N4CCOCC4)c3s2)CC1 [Pictilisib] (partner 1 µM)	HCC-366	0.112
Clc1ccc(Nc2nnc(Cc3ccncc3)c3ccccc23)cc1 [Vatalanib] + Cc1cc(Nc2cc(N3CCN(C)CC3)nc(Sc3ccc(NC(=O)C4CC4)cc3)n2)n[nH]1 [Tozasertib] (partner 0.1 µM)	HCC-366	0.095
COc1cc(N2CCC(C(N)=O)CC2)ccc1Nc1nc(N)c(Cl)c(Nc2ccccc2S(=O)(=O)C(C)C)n1 [HG-5-88-01] + Cc1nc(NC(=O)N2CCC[C@H]2C(N)=O)sc1-c1ccnc(C(C)(C)C(F)(F)F)c1 [Alpelisib] (partner 2 µM)	HCC-366	0.327
Clc1ccc(Nc2nnc(Cc3ccncc3)c3ccccc23)cc1 [Vatalanib] + COc1cc2c(Oc3ccc(NC(=O)C4(C(=O)Nc5ccc(F)cc5)CC4)cc3F)ccnc2cc1OCCCN1CCOCC1 [Foretinib] (partner 0.25 µM)	HCC-366	0.949
Clc1ccc(Nc2nnc(Cc3ccncc3)c3ccccc23)cc1 [Vatalanib] + CC(=O)Nc1cccc(-n2c(=O)n(C3CC3)c(=O)c3c(Nc4ccc(I)cc4F)n(C)c(=O)c(C)c32)c1 [Trametinib] (partner 0.02 µM)	HCC-366	0.299

The reported numbers originate from the supplement of paper PMC10307832.
